TARGET ENTITY: UniProt:Q9Y5X9
PROCEDURE DETAILS: Endothelial lipase (EL) enzymatic assay with fluorescent substrate A10070 in DMPG vesicles
Assay type: biochemical
RESULT TYPE: IC50 (nM)

CS(=O)(=O)C(C(=O)NCC(=O)NC1CC1)c1nc2cc(-c3ccc(NC(=O)OCc4ccccc4)cc3)c(F)cc2s1 (centres unmarked): 1
CC(C)c1ccc(-c2cc3nc(C(C(=O)NCC(=O)NC4CC4)S(=O)(=O)C(C)C)sc3cc2F)cn1 (centres unmarked): 4
COCCS(=O)(=O)C(C(=O)NCC(=O)NC1CC1)c1nc2ccc(-c3ccc(N(C)C(C)=O)cc3)cc2s1 (centres unmarked): 58
COCCS(=O)(=O)C(C(=O)NCC(=O)NC1CC1)c1nc2cc(-c3cccnc3F)ccc2s1 (centres unmarked): 61
COCCS(=O)(=O)C(C(=O)NCC(=O)NC1CC1)c1nc2cc(C)c(-c3cnc(C4CC4)nc3)cc2s1 (centres unmarked): 16
CS(=O)(=O)C(C(=O)NCC(=O)NC1CC1)c1nc2ccc(-c3ccc(F)nc3)cc2s1 (centres unmarked): 47
Cc1ncc(-c2ccc3nc(C(C(=O)NCC(=O)NC4CC4)S(=O)(=O)Cc4cccc(C#N)c4)sc3c2)cn1 (centres unmarked): 145
COCCS(=O)(=O)C(C(=O)NCC(=O)NC1CC1)c1nc2cc(-c3cccc(C(=O)N4CCN(C)CC4)c3)ccc2s1 (centres unmarked): 19
COC(=O)Nc1ccc(-c2cc3sc(C(C(=O)NCC(=O)NC4CC4)S(=O)(=O)N4CCOCC4)nc3cc2F)cc1F (centres unmarked): 13
CC(C)OC(=O)Nc1ccc(-c2cc3sc(C(C(=O)NCC(=O)NC4CC4)S(=O)(=O)C(C)C)nc3cc2F)cc1 (centres unmarked): 2
Cn1cnc2ccc(-c3cc4sc(C(C(=O)NCC(=O)NC5CC5)S(C)(=O)=O)nc4cc3F)cc21 (centres unmarked): 16
CN(C)S(=O)(=O)C(C(=O)NCC(=O)NC1CC1)c1nc2cc(F)c(-c3ccc(-c4ccccn4)cc3)cc2s1 (centres unmarked): 15
O=C(CNC(=O)C(c1nc2ccc(-c3ccc4c(c3)CNC4=O)cc2s1)S(=O)(=O)c1cccnc1)NC1CC1 (centres unmarked): 6
CC(C)S(=O)(=O)C(C(=O)NCC(=O)NC1CC1)c1nc2c(F)cc(-c3cnc(-c4ccccc4)nc3)cc2s1 (centres unmarked): 22

----------
TARGET ENTITY: Endothelial lipase (EL) (Homo sapiens (Human), UniProt Q9Y5X9)
Sequence (Q9Y5X9 21-500): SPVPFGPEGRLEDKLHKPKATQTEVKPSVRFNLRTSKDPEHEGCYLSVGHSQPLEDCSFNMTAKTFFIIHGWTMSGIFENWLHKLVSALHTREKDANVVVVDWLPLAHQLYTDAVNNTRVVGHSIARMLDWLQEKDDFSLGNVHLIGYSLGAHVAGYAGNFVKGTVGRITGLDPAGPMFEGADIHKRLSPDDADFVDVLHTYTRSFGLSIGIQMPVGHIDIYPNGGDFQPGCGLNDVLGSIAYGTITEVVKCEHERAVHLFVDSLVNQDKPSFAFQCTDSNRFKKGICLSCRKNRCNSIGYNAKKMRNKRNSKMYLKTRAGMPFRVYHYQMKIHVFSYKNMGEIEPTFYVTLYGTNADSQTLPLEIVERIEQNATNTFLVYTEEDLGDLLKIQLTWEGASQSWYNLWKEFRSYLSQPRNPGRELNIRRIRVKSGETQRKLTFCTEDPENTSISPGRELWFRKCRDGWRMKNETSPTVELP
PROCEDURE DETAILS: Endothelial lipase (EL) enzymatic assay with fluorescent substrate A10070 in DMPG vesicles
Type: biochemical
pIC50: −log10 of the molar value.
RESULT TYPE: pIC50

COCCS(=O)(=O)C(C(=O)NCC(=O)NC1CC1)c1nc2cc(-c3cnnc(C)c3)ccc2s1 (stereo not shown): 7.80
Cn1ccc2cc(-c3cc4sc(C(C(=O)NCC(=O)NC5CC5)S(C)(=O)=O)nc4cc3F)ccc2c1=O (stereo not shown): 8.30
CC(C)(O)CNC(=O)c1ccc(-c2ccc3nc(C(C(=O)NCC(=O)NC4CC4)S(C)(=O)=O)sc3c2)cc1 (stereo not shown): 8.40
O=C(CNC(=O)C(c1nc2ccc(-c3ccc(F)nc3)cc2s1)S(=O)(=O)Cc1ccc(F)cc1)NC1CC1 (stereo not shown): 7.32
COCCS(=O)(=O)C(C(=O)NCC(=O)NC1CC1)c1nc2ccc(-c3ccc(C(=O)N4CC(F)(F)C4)cc3)cc2s1 (stereo not shown): 7.89
CS(=O)(=O)C(C(=O)NCC(=O)NC1CC1)c1nc2cc(F)c(-c3ccnc(F)c3)cc2s1 (stereo not shown): 7.85
Cn1nccc1-c1ccc2nc(C(C(=O)NCC(=O)NC3CC3)S(=O)(=O)c3ccc(F)cc3)sc2c1 (stereo not shown): 7.74
